So I've got a bunch of molecules here, and I need their flexible substance values.
- TEST DESCRIPTION: Drug-drug compatibility test under accelerated stability conditions
- Type: physicochemical
- ASSAY CONDITIONS: Acceleration 2 week; 40 ± 2°C/75 ± 5% relative humidity; HPLC

Cc1ccc([C@@H]2O[C@H](CO)[C@@H](O)[C@H](O)[C@H]2O)cc1Cc1ccc(-c2ccc(F)cc2)s1 [Com. Ex. 21, Canagliflozin] yielded flexible substance of 5.0 or more

CCCCC(=O)N(Cc1ccc(-c2ccccc2-c2nnn[nH]2)cc1)[C@H](C(=O)O)C(C)C [Com. Ex. 20, Valsartan] yielded flexible substance of 0.1 or more

OC[C@H]1O[C@@H](c2ccc(Cl)c(Cc3ccc(O[C@H]4CCOC4)cc3)c2)[C@H](O)[C@@H](O)[C@@H]1O [Com. Ex. 17, Empagliflozin] yielded flexible substance of 1.0 or more

CCCc1nc2c(C)cc(-c3nc4ccccc4n3C)cc2n1Cc1ccc(-c2ccccc2C(=O)O)cc1 [Com. Ex. 16, Telmisartan] yielded flexible substance of 0.1 or less
